Tested on: HL60 (promyelocytic leukemia) cells
Protocol Notes: MTT antiproliferative assay, HL60
Type: cell-based, human
Settings: SI = IC50 MDCK1 / IC50 HL60
Labels assigned by SI (MDCK) HL60 range: c1 (below 2), c2 (2 to below 3), c3 (3 or more)

Worked set:
- Molecule: "O=C(COc1ccc(-c2nc3ccc(C4=NCCCN4)cc3s2)cc1F)c1ccccc1 [38b]"
  Assigned Class: "c1"
- Molecule: "Fc1cc(-c2nc3ccc(C4=NCCCN4)cc3[nH]2)ccc1OCc1cn(Cc2ccccc2)nn1 [45b]"
  Assigned Class: "c1"
- Molecule: "COc1cc(-c2nc3ccc(C4=NCCCN4)cc3[nH]2)ccc1OCC(=O)c1ccccc1 [42c]"
  Assigned Class: "c3"
- Molecule: "c1ccc(COc2ccc(-c3nc4ccc(C5=NCCCN5)cc4[nH]3)cc2)nc1 [43a]"
  Assigned Class: "c2"
- Molecule: "COc1cc(-c2nc3ccc(C4=NCCCN4)cc3s2)ccc1OCc1ccccn1 [39c]"
  Assigned Class: "c3"
- Molecule: "c1ccc(Cn2cc(COc3ccc(-c4nc5ccc(C6=NCCCN6)cc5[nH]4)cc3)nn2)cc1 [45a]"
  Assigned Class: "c2"

Which class holds O=C(COc1ccc(-c2nc3ccc(C4=NCCCN4)cc3[nH]2)cc1F)c1ccccc1 [42b] ? c1

Which class holds COc1cc(-c2nc3ccc(C4=NCCCN4)cc3[nH]2)ccc1OCc1cn(Cc2ccccc2)nn1 [45c] ? c2

----------
Tested on: CaCo-2 (colon adenocarcinoma) cells
Protocol Notes: MTT antiproliferative assay, CaCo-2
Assay type: cell-based, human
Settings: SI = IC50 MDCK1 / IC50 CaCo-2
Observed Property: SI (MDCK) CaCo-2
The reply should be a number, written without any unit.

- Compound: "Fc1cc(-c2nc3ccccc3s2)ccc1OCc1ccccn1 [20b]"
  Observed Property: "SI (MDCK) CaCo-2"
  Observed Value: 3.28

Field SI (MDCK) CaCo-2 (entry O=C(COc1ccc(-c2nc3ccc(C4=NCCCN4)cc3s2)cc1F)c1ccccc1 [38b] ) reads 1.37

Field SI (MDCK) CaCo-2 (entry COc1cc(-c2nc3ccc(C4=NCCCN4)cc3s2)ccc1OCc1ccccn1 [39c] ) reads 2.87

Field SI (MDCK) CaCo-2 (entry c1ccc(Cn2cc(COc3ccc(-c4nc5ccc(C6=NCCCN6)cc5s4)cc3)nn2)cc1 [41a] ) reads 1.99

----------
Observed Property: melting point

See these solved cases before continuing.
- Compound: "Clc1ccc2nc(-c3ccc(OCc4c[nH]nn4)cc3)sc2c1 [21a]"
  Observed Property: "melting point"
  Observed Value: "220 to 223 °C"
- Compound: "Cl.O=C(COc1ccc(-c2nc3ccc(C4=NCCN4)cc3s2)cc1)c1ccccc1 [34a]"
  Observed Property: "melting point"
  Observed Value: "> 250 °C"
- Compound: "c1ccc(Cn2cc(COc3ccc(-c4nc5ccccc5s4)cc3)nn2)cc1 [26a]"
  Observed Property: "melting point"
  Observed Value: "210 to 214 °C"
- Compound: "O=C(COc1ccc(-c2nc3ccc(F)cc3s2)cc1F)c1ccccc1 [16b]"
  Observed Property: "melting point"
  Observed Value: "148 to 152 °C"
- Compound: "Fc1cc(-c2nc3ccc(Cl)cc3s2)ccc1OCc1cn(Cc2ccccc2)nn1 [24b]"
  Observed Property: "melting point"
  Observed Value: "181 to 186 °C"
- Compound: "COc1cc(-c2nc3ccc(Cl)cc3s2)ccc1OCc1ccccn1 [18c]"
  Observed Property: "melting point"
  Observed Value: "173 to 176 °C"
- Compound: "COc1cc(-c2nc3ccc(Cl)cc3s2)ccc1OCC(=O)c1ccccc1 [15c]"
  Observed Property: "melting point"
  Observed Value: "163 to 166 °C"
- Compound: "Fc1cc(-c2nc3ccccc3s2)ccc1OCc1ccccn1 [20b]"
  Observed Property: "melting point"
  Observed Value: "136 to 142 °C"
- Compound: "Fc1cc(-c2nc3ccccc3s2)ccc1OCc1c[nH]nn1 [23b]"
  Observed Property: "melting point"
  Observed Value: "185 to 189 °C"
- Compound: "Fc1ccc2nc(-c3ccc(OCc4ccccn4)cc3)sc2c1 [19a]"
  Observed Property: "melting point"
  Observed Value: "165 to 170 °C"

Field melting point (entry c1ccc2sc(-c3ccc(OCc4c[nH]nn4)cc3)nc2c1 [23a] ) reads 204 to 207 °C

Field melting point (entry COc1cc(-c2nc3ccc(F)cc3s2)ccc1OCC(=O)c1ccccc1 [16c] ) reads 178 to 181 °C

Field melting point (entry COc1cc(-c2nc3ccc(F)cc3s2)ccc1OCc1cn(Cc2ccccc2)nn1 [25c] ) reads 180 to 183 °C

Field melting point (entry Fc1ccc2nc(-c3ccc(OCc4c[nH]nn4)cc3)sc2c1 [22a] ) reads 212 to 215 °C

Field melting point (entry COc1cc(-c2nc3ccccc3s2)ccc1OCc1c[nH]nn1 [23c] ) reads 177 to 180 °C

----------
Entries and their melting point

See these solved cases before continuing.
- Compound: "Cl.O=C(COc1ccc(-c2nc3ccc(C4=NCCN4)cc3s2)cc1F)c1ccccc1 [34b]"
  melting point: "> 240 °C"
- Compound: "Cl.Fc1cc(-c2nc3ccc(C4=NCCN4)cc3s2)ccc1OCc1cn(Cc2ccccc2)nn1 [37b]"
  melting point: "> 240 °C"
- Compound: "Fc1ccc2nc(-c3ccc(OCc4cn(Cc5ccccc5)nn4)c(F)c3)sc2c1 [25b]"
  melting point: "205 to 208 °C"
- Compound: "COc1cc(-c2nc3ccc(F)cc3s2)ccc1OCc1ccccn1 [19c]"
  melting point: "152 to 156 °C"
- Compound: "COc1cc(-c2nc3ccc(C4=NCCN4)cc3s2)ccc1OCC(=O)c1ccccc1.Cl [34c]"
  melting point: "> 240 °C"
- Compound: "Fc1cc(-c2nc3ccccc3s2)ccc1OCc1cn(Cc2ccccc2)nn1 [26b]"
  melting point: "198 to 201 °C"
- Compound: "Cl.Fc1cc(-c2nc3ccc(C4=NCCN4)cc3s2)ccc1OCc1c[nH]nn1 [36b]"
  melting point: "234 to 237 °C"
- Compound: "O=C(COc1ccc(-c2nc3ccccc3s2)cc1)c1ccccc1 [17a]"
  melting point: "150 to 155 °C"

Field melting point (entry Fc1ccc2nc(-c3ccc(OCc4cn(Cc5ccccc5)nn4)cc3)sc2c1 [25a] ) reads 176 to 180 °C

Field melting point (entry Cl.c1ccc(COc2ccc(-c3nc4ccc(C5=NCCN5)cc4s3)cc2)nc1 [35a] ) reads > 250 °C

Field melting point (entry COc1cc(-c2nc3ccc(Cl)cc3s2)ccc1OCc1c[nH]nn1 [21c] ) reads 183 to 188 °C

Field melting point (entry O=C(COc1ccc(-c2nc3ccc(Cl)cc3s2)cc1F)c1ccccc1 [15b] ) reads 192 to 195 °C

Field melting point (entry Clc1ccc2nc(-c3ccc(OCc4cn(Cc5ccccc5)nn4)cc3)sc2c1 [24a] ) reads 201 to 205 °C

Field melting point (entry COc1cc(-c2nc3ccccc3s2)ccc1OCc1cn(Cc2ccccc2)nn1 [26c] ) reads 170 to 173 °C

Field melting point (entry Fc1cc(-c2nc3ccc(Cl)cc3s2)ccc1OCc1ccccn1 [18b] ) reads 211 to 215 °C

Field melting point (entry Cl.c1cc(-c2nc3ccc(C4=NCCN4)cc3s2)ccc1OCc1c[nH]nn1 [36a] ) reads 218 to 221 °C

Field melting point (entry COc1cc(-c2nc3ccc(C4=NCCN4)cc3s2)ccc1OCc1ccccn1.Cl [35c] ) reads 219 to 223 °C

Field melting point (entry c1ccc(COc2ccc(-c3nc4ccccc4s3)cc2)nc1 [20a] ) reads 132 to 136 °C

Field melting point (entry COc1cc(-c2nc3ccccc3s2)ccc1OCC(=O)c1ccccc1 [17c] ) reads 184 to 186 °C

Field melting point (entry COc1cc(-c2nc3ccc(C4=NCCN4)cc3s2)ccc1OCc1cn(Cc2ccccc2)nn1.Cl [37c] ) reads > 240 °C

----------
System: HuT78 (T-cell lymphoma) cells
Protocol Notes: MTT antiproliferative assay, HuT78
Assay type: cell-based, human
Settings: SI = IC50 MDCK1 / IC50 HuT78
Entries and their SI (MDCK) HuT78

See these solved cases before continuing.
- Molecule: "Cl.c1cc(-c2nc3ccc(C4=NCCN4)cc3s2)ccc1OCc1c[nH]nn1 [36a]"
  SI (MDCK) HuT78: 7.23
- Molecule: "Clc1ccc2nc(-c3ccc(OCc4c[nH]nn4)cc3)sc2c1 [21a]"
  SI (MDCK) HuT78: 1.85
- Molecule: "Fc1cc(-c2nc3ccc(C4=NCCCN4)cc3s2)ccc1OCc1c[nH]nn1 [40b]"
  SI (MDCK) HuT78: 2.68
- Molecule: "Fc1cc(-c2nc3ccc(C4=NCCN4)cc3[nH]2)ccc1OCc1c[nH]nn1 [44b]"
  SI (MDCK) HuT78: 1.52
- Molecule: "COc1cc(-c2nc3ccc(Cl)cc3s2)ccc1OCc1c[nH]nn1 [21c]"
  SI (MDCK) HuT78: 1.78

Field SI (MDCK) HuT78 (entry COc1cc(-c2nc3ccc(C4=NCCN4)cc3[nH]2)ccc1OCc1ccccn1 [43c] ) reads 3.58

Field SI (MDCK) HuT78 (entry c1ccc(Cn2cc(COc3ccc(-c4nc5ccc(C6=NCCCN6)cc5[nH]4)cc3)nn2)cc1 [45a] ) reads 20.83

Field SI (MDCK) HuT78 (entry c1ccc(Cn2cc(COc3ccc(-c4nc5ccc(C6=NCCCN6)cc5s4)cc3)nn2)cc1 [41a] ) reads 14.19

Field SI (MDCK) HuT78 (entry COc1cc(-c2nc3ccccc3s2)ccc1OCc1ccccn1 [20c] ) reads 1.33

The measured values listed here are drawn from paper PMC9785280.
